compounds and their reported inhibition
Tested on: Mycobacterium tuberculosis
Experiment: Inhibition of Mycobacterium tuberculosis AHAS catalytic subunit assessed as inhibition of acetoin formation using […] as substrate at 100 uM after 1 hr
Numbers only; they are read as %.

Give its inhibition value. Item: COc1cccc(C(=O)On2c(-c3ccccc3)nc3ccccc3c2=O)c1
27

Give its inhibition value. Item: O=C(On1c(-c2ccccc2)nc2ccccc2c1=O)c1ccccc1
20.5

Give its inhibition value. Item: COc1cccc(-c2nc3ccccc3c(=O)n2OC(=O)c2cccc(Cl)c2)c1
23.5

---

Test system: Mycobacterium tuberculosis
Experiment: Inhibition of Mycobacterium tuberculosis AHAS catalytic subunit assessed as inhibition of acetoin formation using […] as substrate at 100 uM after 1 hr
// map inhibition onto a label; ranges bottom range: < 20%; center range: ≥ 20% and < 40%; top range: ≥ 40%

> print(dat)
                        structure.as.smiles            target.or.system  class.assignment
1  O=C(On1c(-c2cccc(F)c2)nc2ccccc2c1=O)c1ccccc1  Mycobacterium tuberculosis      center range

Sort O=C(On1c(-c2ccccc2)nc2ccccc2c1=O)c1ccc(Cl)cc1 into one of the categories.
bottom range

Sort Cc1ccccc1C(=O)On1c(-c2ccccc2)nc2ccccc2c1=O into one of the categories.
bottom range

Sort O=C(On1c(-c2ccccc2)nc2ccccc2c1=O)c1cccc([N+](=O)[O-])c1 into one of the categories.
top range

Sort Cc1ccc(C(=O)On2c(-c3cccc(C)c3)nc3ccccc3c2=O)cc1 into one of the categories.
center range

Sort O=C(On1c(-c2cccc(F)c2)nc2ccccc2c1=O)c1cccc(F)c1 into one of the categories.
top range

Sort Cc1cccc(-c2nc3ccccc3c(=O)n2OC(=O)c2ccc(Cl)cc2)c1 into one of the categories.
bottom range
